Experiment: Caco-2 permeability assay (CacoReady kit)
Type: in vitro ADME
Conditions: human
Assay readout: Papp

Compound	Assay readout	Measured
COC(=O)/C=C/CC[C@H](NC(=O)c1snnc1CO)C(=O)Nc1cccn(CC(=O)NC2C3CC4CC(C3)CC2C4)c1=O (stereo partly drawn)	Papp	< 1 ×10⁻⁶ cm/s
Cc1c(C(=O)N[C@@H](CC/C=C/S(C)(=O)=O)C(=O)Nc2cccn(CC(=O)NC3C4CC5CC(C4)CC3C5)c2=O)oc2ccccc12 (stereo partly drawn)	Papp	1 to 10 ×10⁻⁶ cm/s
COC(=O)/C=C/CC[C@H](NC(=O)c1nc2ccccc2[nH]1)C(=O)Nc1cccn(CC(=O)NC2C3CC4CC(C3)CC2C4)c1=O (stereo partly drawn)	Papp	< 1 ×10⁻⁶ cm/s
COC(=O)/C=C/CC[C@H](NC(=O)[C@@H]1CCCN1C(C)=O)C(=O)Nc1cccn(CC(=O)NC2C3CC4CC(C3)CC2C4)c1=O (stereo partly drawn)	Papp	< 1 ×10⁻⁶ cm/s
COC(=O)/C=C/CC[C@H](NC(=O)c1c[nH]c(C(N)=O)c1)C(=O)Nc1cccn(CC(=O)NC23CC(C2)C3)c1=O	Papp	< 1 ×10⁻⁶ cm/s
COC(=O)/C=C/CC[C@H](NC(=O)c1cccnc1)C(=O)Nc1cccn(CC(=O)NC2C3CC4CC(C3)CC2C4)c1=O (stereo partly drawn)	Papp	< 1 ×10⁻⁶ cm/s
